target: T1, rHuman IGF-1 sR, (IGF-1 sR), CF (human, UniProt P08069 31-932); assay: ECL Multispot (MSD) assay; antigen spotted on plate, Fab in solution;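 also: fab bound 1 h at 20 °C, detected by TAG-labelled antibody electrochemiluminescence, signal relative to each well's blank, ratio of 4 or more marks a hit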
T1 construct: Bought from R&D Systems; also called insulin-like growth factor-1 soluble receptor
# ECL signal listing for each entry below
Respond using a number only.

A selection of reference data follows.
| binder | measuredEndpoint | assayValue |
| --- | --- | --- |
| Fab VH1-46_IGHD6-6*01_IGHJ1*01 S102A/S103P/S104F/H111F (APFF) & L6_IGKJ1*01 S28V (Fab, V domains shown, Fab made in E. coli; the variable domains were cloned into Plasmid A (CH1, His and Flag tags) and Plasmid C (kappa CL); also called APFF / S28V) VH: QVQLVQSGAEVKKPGASVKVSCKASGYTFTSYYMHWVRQAPGQGLEWMGIINPSGGSTSYAQKFQGRVTMTRDTSTSTVYMELSSLRSEDTAVYYCAREEYAPFSAEYFQFWGQGTLVTVSS VL: EIVLTQSPATLSLSPGERATLSCRASQVVSSYLAWYQQKPGQAPRLLIYDASNRATGIPARFSGSGSGTDFTLTISSLEPEDFAVYYCQQRSNWPPWTFGQGTKVEIKR | ECL signal | 284 |
| Fab VH1-46_IGHD6-6*01_IGHJ1*01 S102A/S103P/S104F/H111F (APFF) & L6_IGKJ1*01 S28A (Fab, V domains shown, Fab made in E. coli; the variable domains were cloned into Plasmid A (CH1, His and Flag tags) and Plasmid C (kappa CL); also called APFF / S28A) VH: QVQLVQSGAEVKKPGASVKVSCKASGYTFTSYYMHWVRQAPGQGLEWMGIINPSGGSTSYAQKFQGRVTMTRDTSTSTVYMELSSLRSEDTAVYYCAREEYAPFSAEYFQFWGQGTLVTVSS VL: EIVLTQSPATLSLSPGERATLSCRASQAVSSYLAWYQQKPGQAPRLLIYDASNRATGIPARFSGSGSGTDFTLTISSLEPEDFAVYYCQQRSNWPPWTFGQGTKVEIKR | ECL signal | 378 |
| Fab VH1-46_IGHD6-6*01_IGHJ1*01 S102A/S103P/S104F/H111F (APFF) & L6_IGKJ1*01 S28K (Fab, V domains shown, Fab made in E. coli; the variable domains were cloned into Plasmid A (CH1, His and Flag tags) and Plasmid C (kappa CL); also called APFF / S28K) VH: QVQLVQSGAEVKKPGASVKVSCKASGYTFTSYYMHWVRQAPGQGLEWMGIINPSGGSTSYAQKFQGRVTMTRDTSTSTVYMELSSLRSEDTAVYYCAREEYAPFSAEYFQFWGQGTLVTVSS VL: EIVLTQSPATLSLSPGERATLSCRASQKVSSYLAWYQQKPGQAPRLLIYDASNRATGIPARFSGSGSGTDFTLTISSLEPEDFAVYYCQQRSNWPPWTFGQGTKVEIKR | ECL signal | 348 |
| Fab VH1-46_IGHD6-6*01_IGHJ1*01 S102A/S103P/S104F/H111F (APFF) & L6_IGKJ1*01 S28P (Fab, V domains shown, Fab made in E. coli; the variable domains were cloned into Plasmid A (CH1, His and Flag tags) and Plasmid C (kappa CL); also called APFF / S28P) VH: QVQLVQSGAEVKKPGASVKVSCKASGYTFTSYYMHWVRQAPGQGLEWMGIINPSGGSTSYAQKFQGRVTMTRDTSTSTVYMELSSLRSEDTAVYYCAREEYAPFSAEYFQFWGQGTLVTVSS VL: EIVLTQSPATLSLSPGERATLSCRASQPVSSYLAWYQQKPGQAPRLLIYDASNRATGIPARFSGSGSGTDFTLTISSLEPEDFAVYYCQQRSNWPPWTFGQGTKVEIKR | ECL signal | 392 |

# ---- query binder ----
Task: In one line, give reported ECL signal of the entry Fab VH1-46_IGHD6-6*01_IGHJ1*01 S102A/S103P/S104F/H111F (APFF) & L6_IGKJ1*01 S28G (Fab, V domains shown, Fab made in E. coli; the variable domains were cloned into Plasmid A (CH1, His and Flag tags) and Plasmid C (kappa CL); also called APFF / S28G) VH: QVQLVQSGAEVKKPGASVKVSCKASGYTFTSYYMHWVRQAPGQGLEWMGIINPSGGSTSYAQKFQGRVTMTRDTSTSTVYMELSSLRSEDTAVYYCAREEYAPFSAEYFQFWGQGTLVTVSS VL: EIVLTQSPATLSLSPGERATLSCRASQGVSSYLAWYQQKPGQAPRLLIYDASNRATGIPARFSGSGSGTDFTLTISSLEPEDFAVYYCQQRSNWPPWTFGQGTKVEIKR .
Result: 360
